B1: tRNA (parent)
chain: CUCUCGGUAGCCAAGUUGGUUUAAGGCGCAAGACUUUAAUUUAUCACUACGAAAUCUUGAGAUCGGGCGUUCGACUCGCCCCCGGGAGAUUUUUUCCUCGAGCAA

# Variants of: B1
# assay protocol: nonsense suppression (GFP-seq) (ratio to wild type); higher = more function; SUP4oc tRNA, yeast GFP reporter sort-seq
This sample holds only a part of the variants without activity.
measurement name: nonsense suppression

Name the recorded nonsense suppression of the variant listed here: G18U U20G G65C G66C ≤ 0.026

Name the recorded nonsense suppression of the variant listed here: U16A A24C 0.872

***
Name the recorded nonsense suppression of the variant listed here: A9U G25U ≤ 0.026

Name the recorded nonsense suppression of the variant listed here: A13C C27A G61C C75G ≤ 0.026

The values you see were collected from the RNAGym collection of RNA variant scans (doi:10.1101/gad.245936.114).
